- Measurement Target: hMC1-R (human) (UniProt Q01726)
- Sequence (Q01726 whole entry): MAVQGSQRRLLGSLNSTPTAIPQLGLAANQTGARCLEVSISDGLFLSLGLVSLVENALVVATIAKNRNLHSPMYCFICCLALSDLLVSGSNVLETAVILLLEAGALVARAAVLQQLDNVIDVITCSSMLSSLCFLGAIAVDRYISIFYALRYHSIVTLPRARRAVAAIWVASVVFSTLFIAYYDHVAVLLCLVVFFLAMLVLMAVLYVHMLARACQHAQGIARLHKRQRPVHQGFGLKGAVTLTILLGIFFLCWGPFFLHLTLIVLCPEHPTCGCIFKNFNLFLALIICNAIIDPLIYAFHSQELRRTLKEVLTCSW
- Procedure Summary: cell-based or functional assay
Bridge positions count the residues as written; N and C are the ends. Square brackets hold non-standard residues; d marks the D form. Ends that are not written are not given here. Nle = CCCC[C@H](N)C(=O)O; Dap = NC[C@H](N)C(=O)O; Ava = NCCCCC(=O)O
Observable: cAMP EC50 (nM)
One number for each entry, in nM.

For the binder Ac-[Nle]CH[dF]RW[Ava]C-NH2 (disulfide 2-8; SMILES CCCC[C@H](NC(C)=O)C(=O)N[C@H]1CSSC[C@@H](C(N)=O)NC(=O)CCCCNC(=O)[C@H](Cc2c[nH]c3ccccc23)NC(=O)[C@H](CCCNC(=N)N)NC(=O)[C@@H](Cc2ccccc2)NC(=O)[C@H](Cc2c[nH]cn2)NC1=O) [Ac-Nle-c(Cys-His-D-Phe-Arg-Trp-Apn-Cys)-NH2] , what cAMP EC50 is on record?
0.76

***
For the binder E[dA]H[dF]RW[Dap]-NH2 (lactam 1-7 (inferred); also: residues 1-2 joined in a hydantoin ring (C(O))) [c[Hydantoin(C(O)-(Glu-D-Ala))-His-D-Phe-Arg-Trp-Dap]-NH2] , what cAMP EC50 is on record?
56.7
